System: HCV in Huh7.5 cells
Procedure details: Antiviral infectious assay (TCID50)
Format: cell-based, Hepatitis C virus
Run parameters: Hepatitis C virus, Huh7.5, 48 h, read-out: IC50, 50% reduction in viral titers
Parameter measured: IC50
Please answer in the form of a number followed by its unit of measurement.

Exercise: Record lookup: for HCV in Huh7.5 cells, what IC50 belongs to CCC[C@H](NC(=O)[C@@H]1[C@H]2CCC[C@H]2CN1C(=O)[C@@H](NC(=O)[C@@H](NC(=O)c1cnccn1)C1CCCCC1)C(C)(C)C)C(=O)C(=O)NC1CC1 [telaprevir, reference compound] ?
Key: 138 nM
